Taken from paper PMC7371993.

target: Langerin ECD (Homo sapiens, UniProt Q9UJ71)
Sequence (Q9UJ71 68-328): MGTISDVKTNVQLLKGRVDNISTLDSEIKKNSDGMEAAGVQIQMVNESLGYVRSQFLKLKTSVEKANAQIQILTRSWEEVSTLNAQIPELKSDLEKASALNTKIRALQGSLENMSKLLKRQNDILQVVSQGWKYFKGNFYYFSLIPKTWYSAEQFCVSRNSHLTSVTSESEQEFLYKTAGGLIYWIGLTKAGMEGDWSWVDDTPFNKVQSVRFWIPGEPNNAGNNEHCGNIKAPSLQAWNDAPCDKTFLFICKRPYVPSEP
EXPERIMENTAL ENDPOINT: IC50 (µM)

{"MOL": "CC(=O)N[C@@H](CCCCn1cc(CO[C@H]2O[C@H](CO)[C@@H](O)[C@H](O)[C@@H]2O[C@H]2O[C@H](CO)[C@@H](O)[C@H](O)[C@@H]2O)nn1)C(=O)NCC(=O)N[C@@H](CCCCn1cc(CO[C@H]2O[C@H](CO)[C@@H](O)[C@H](O)[C@@H]2O[C@H]2O[C@H](CO)[C@@H](O)[C@H](O)[C@@H]2O)nn1)C(=O)NCC(=O)N[C@@H](CCCCN)C(N)=O", "MEASURED ON": "Langerin ECD (Homo sapiens, UniProt Q9UJ71)", "SCALE UNIT": "µM", "REPORTED MEASUREMENT": 181}
{"MOL": "CC(=O)N[C@@H](CCCCn1cc(CO[C@H]2O[C@H](CO)[C@@H](O)[C@H](O)[C@@H]2O)nn1)C(=O)NCC(=O)N[C@@H](CCCCn1cc(CO[C@H]2O[C@H](CO)[C@@H](O)[C@H](O)[C@@H]2O)nn1)C(=O)NCC(=O)N[C@@H](CCCCN)C(N)=O", "MEASURED ON": "Langerin ECD (Homo sapiens, UniProt Q9UJ71)", "SCALE UNIT": "µM", "REPORTED MEASUREMENT": 2420}
{"MOL": "CC(=O)N[C@@H](CCCCn1cc(CO[C@H]2O[C@H](CO)[C@@H](O)[C@H](O[C@H]3O[C@H](CO)[C@@H](O)[C@H](O)[C@@H]3O)[C@@H]2O)nn1)C(=O)NCC(=O)N[C@@H](CCCCn1cc(CO[C@H]2O[C@H](CO)[C@@H](O)[C@H](O[C@H]3O[C@H](CO)[C@@H](O)[C@H](O)[C@@H]3O)[C@@H]2O)nn1)C(=O)NCC(=O)N[C@@H](CCCCN)C(N)=O", "MEASURED ON": "Langerin ECD (Homo sapiens, UniProt Q9UJ71)", "SCALE UNIT": "µM", "REPORTED MEASUREMENT": 1420}
{"MOL": "CC(=O)N[C@@H](CCCCn1cc(CO[C@H]2O[C@H](CO)[C@@H](O)[C@H](O)[C@@H]2O[C@H]2O[C@H](CO)[C@@H](O)[C@H](O)[C@@H]2O)nn1)C(=O)NCC(=O)N[C@@H](CCCCN)C(N)=O", "MEASURED ON": "Langerin ECD (Homo sapiens, UniProt Q9UJ71)", "SCALE UNIT": "µM", "REPORTED MEASUREMENT": 4140}
